Measured Selectivity ratio by item
species on record: Homo sapiens; assay: Selectivity for f7a over trypsin

Example results:
| smiles.repr | result |
| --- | --- |
| Nc1ccc2[nH]c(-c3cc(CC(=O)O)cc(-c4cccc([N+](=O)[O-])c4)c3O)cc2n1 | 400 |
| Nc1ccc2[nH]c(-c3cc(CC(=O)O)cc(-c4cccc(CNC(=O)Nc5ccccc5)c4)c3O)cc2n1 | > 7000 |
| Nc1ccc2[nH]c(-c3cc(CC(=O)O)cc(-c4cccc(O)c4)c3O)cc2n1 | 84 |
| CS(=O)(=O)c1cccc(-c2cc(CC(=O)O)cc(-c3cc4[nH]c(N)ccc-4n3)c2O)c1 | 16 |
| CN(C)CCNC(=O)NCc1cccc(-c2cc(CC(=O)O)cc(-c3cc4[nH]c(N)ccc-4n3)c2O)c1 | > 100 |

Task: Need Selectivity ratio of NC(=O)Nc1cccc(-c2cc(CC(=O)O)cc(-c3cc4[nH]c(N)ccc-4n3)c2O)c1 , thanks.
Output: > 13

Task: Similarly, Nc1ccc2[nH]c(-c3cc(CC(=O)O)cc(-c4ccccc4)c3O)cc2n1 ?
Output: 67

----------
target: Coagulation factor X (Homo sapiens, UniProt P00742)
Sequence (P00742 41-179 limits assumed): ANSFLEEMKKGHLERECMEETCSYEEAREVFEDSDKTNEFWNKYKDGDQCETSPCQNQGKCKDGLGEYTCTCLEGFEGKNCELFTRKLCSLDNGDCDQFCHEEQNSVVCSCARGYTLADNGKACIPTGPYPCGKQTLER
Sequence (P00742 235-488 limits assumed): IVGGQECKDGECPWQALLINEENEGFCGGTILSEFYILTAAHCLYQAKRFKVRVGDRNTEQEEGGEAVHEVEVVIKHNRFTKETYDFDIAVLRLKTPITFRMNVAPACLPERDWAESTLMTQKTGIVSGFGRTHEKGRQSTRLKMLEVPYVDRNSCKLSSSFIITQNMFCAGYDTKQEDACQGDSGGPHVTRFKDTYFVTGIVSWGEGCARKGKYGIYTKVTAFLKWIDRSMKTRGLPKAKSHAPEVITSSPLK
recorded.metric: pKi
Kindly note that pKi refers to -log10 of the concentration in mol/L and answer with the value alone.

Task: I am curious: what pKi value has been reported for N=C(N)c1ccc2[nH]c(-c3cc(CC(=O)O)cc(-c4cccc([N+](=O)[O-])c4)c3O)cc2c1 ?
Output: 7.30
